Values were extracted from patent US20220242874A1.

Test system: HT-29 cells
method summary: In-vitro cancer cell growth inhibition assay (MTT)
Assay type: cell-based
settings: Homo sapiens, HT-29, 96 h, read-out: IC50 (nM) HT-29
Protocol: The compounds of the present invention were evaluated for their ability to inhibit the growth of various cell line models of small cell lung cancer (SCLC), colon cancer, pancreatic cancer and triple negative breast cancer (TNBC) in-vitro. […] The formazan crystals were dissolved overnight at 37° C., 5% CO2 using 100 μL extractant (10% SDS in 0.01N HCl) and quantified using absorbance at 570 nm with reference wavelength 630 nm. […]
Where a name gives a salt, the structure may show the parent alone.
Task for the reader: assign each of the following compounds its reported IC50.
Give bare numbers, in nM.

Previously resolved entries follow.
compound: CCc1c2c(nc3ccc(O)cc13)-c1cc3c(c(=O)n1C2)COC(=O)[C@@]3(CC)OC(=O)OCCSSCCNC(=O)c1ccc(CN2CCN(C)CC2)cc1 [Compound I.6, dihydrochloride]
IC50 [nM]: 15.7

compound: CCc1c2c(nc3ccc(O)cc13)-c1cc3c(c(=O)n1C2)COC(=O)[C@@]3(CC)OC(=O)OCCSSCCOC(=O)Nc1ccc(N2CCN(C)CC2)cc1.Cl [Compound I.2, hydrochloride]
IC50 [nM]: 31

compound: CCc1c2c(nc3ccc(O)cc13)-c1cc3c(c(=O)n1C2)COC(=O)[C@@]3(CC)OC(=O)OCCSSCCOC(=O)N(C)c1ccc(N2CCN(C)CC2)cc1.Cl [Compound I.3, hydrochloride]
IC50 [nM]: 43.7

Now look at this entry.
# input compound: CCc1c2c(nc3ccc(O)cc13)-c1cc3c(c(=O)n1C2)COC(=O)[C@@]3(CC)OC(=O)OCCSSCCNC(=O)c1ccc(N2CCN(C)CC2)cc1 [Compound I.5, dihydrochloride] ; wanted: its IC50 48.3
